# Tested on: SW-620
# assayMethodText: In vitro inhibition of Colon Cancer SW-620 cell lines
# Format: functional
# settings: Homo sapiens
measuredQuantity: GI50 (µM)
Numbers only; they are read as µM.

Some compounds with known GI50 results, for comparison:
compound	valueReported
C=C1CC(Cn2cc(C)c(=O)[nH]c2=O)(c2ccc(-c3ccccc3)cc2)OC1=O (stereo unspecified)	1.02
C=C1CC(Cn2cc(Br)c(=O)[nH]c2=O)(c2ccc(-c3ccccc3)cc2)OC1=O (stereo unspecified)	0.282
C=C1CC(Cn2cc(Br)c(=O)[nH]c2=O)(c2ccc(F)cc2)OC1=O (stereo unspecified)	2.75
C=C1CC(Cn2ccc(=O)[nH]c2=O)(c2ccc(-c3ccccc3)cc2)OC1=O (stereo unspecified)	0.17
C=C1CC(Cn2cc(C)c(=O)[nH]c2=O)(c2ccc(F)cc2)OC1=O (stereo unspecified)	3.63

Now for the compound whose GI50 we want.
[ask] So what does the record say about GI50 for C=C1CC(Cn2ccc(=O)[nH]c2=O)(c2ccc(F)cc2)OC1=O (stereo unspecified) ?
[reply] 4.9

* * *

# Test system: COLO 205
# assayMethodText: In vitro inhibition of Colon Cancer COLO 205 cell lines
# Format: functional
# settings: Homo sapiens
measuredQuantity: GI50
Could you give the number and then its unit, please?

Consider the reported GI50 for these molecules:
molecule	GI50
C=C1CC(Cn2cc(Br)c(=O)[nH]c2=O)(c2ccc(-c3ccccc3)cc2)OC1=O (centres undefined)	355 nM
C=C1CC(Cn2cc(C)c(=O)[nH]c2=O)(c2ccc(-c3ccccc3)cc2)OC1=O (centres undefined)	1410 nM

[ask] Would you mind telling me what GI50 value was observed for C=C1CC(Cn2ccc(=O)[nH]c2=O)(c2ccc(-c3ccccc3)cc2)OC1=O (centres undefined) ?
[reply] 174 nM

[ask] Input C=C1CC(Cn2cc(Br)c(=O)[nH]c2=O)(c2ccc(F)cc2)OC1=O (centres undefined)
[reply] 2240 nM

* * *

The entries below come with measured GI50 values attached.
# Test system: DU-145
# assayMethodText: In vitro inhibition of Prostate Cancer DU-145 cell lines
# Format: functional
# settings: Homo sapiens
The figure you give is taken to be in µM; do not add the unit.

compound	valueReported
C=C1CC(Cn2ccc(=O)[nH]c2=O)(c2ccc(F)cc2)OC1=O (stereo unspecified)	15.1

[ask] Give its GI50 value. Item: C=C1CC(Cn2cc(Br)c(=O)[nH]c2=O)(c2ccc(F)cc2)OC1=O (stereo unspecified)
[reply] 16.2

[ask] Lookup C=C1CC(Cn2cc(C)c(=O)[nH]c2=O)(c2ccc(-c3ccccc3)cc2)OC1=O (stereo unspecified)
[reply] 1.66

[ask] Further, for C=C1CC(Cn2cc(C)c(=O)[nH]c2=O)(c2ccc(F)cc2)OC1=O (stereo unspecified) ?
[reply] 7.59

[ask] Continue with C=C1CC(Cn2ccc(=O)[nH]c2=O)(c2ccc(-c3ccccc3)cc2)OC1=O (stereo unspecified)
[reply] 0.2

[ask] Then what about the compound C=C1CC(Cn2cc(Br)c(=O)[nH]c2=O)(c2ccc(-c3ccccc3)cc2)OC1=O (stereo unspecified) ?
[reply] 1.07

* * *

# Tested on: IGROV-1
# assayMethodText: In vitro inhibition of Ovarian Cancer IGROV1 cell lines
# Assay type: functional
# settings: Homo sapiens
// values below are reported GI50
Value expressed in µM; do not type the unit.

Example cases with answers are listed next.
compound	quantityUnit	GI50
C=C1CC(Cn2ccc(=O)[nH]c2=O)(c2ccc(F)cc2)OC1=O (stereo unspecified)	µM	13.2
C=C1CC(Cn2cc(Br)c(=O)[nH]c2=O)(c2ccc(-c3ccccc3)cc2)OC1=O (stereo unspecified)	µM	1.2
C=C1CC(Cn2cc(Br)c(=O)[nH]c2=O)(c2ccc(F)cc2)OC1=O (stereo unspecified)	µM	12.9

[ask] Reported GI50, compound C=C1CC(Cn2cc(C)c(=O)[nH]c2=O)(c2ccc(F)cc2)OC1=O (stereo unspecified) : ____
[reply] 5.5

[ask] Next compound up: C=C1CC(Cn2cc(C)c(=O)[nH]c2=O)(c2ccc(-c3ccccc3)cc2)OC1=O (stereo unspecified)
[reply] 1.91

[ask] What do we get for C=C1CC(Cn2ccc(=O)[nH]c2=O)(c2ccc(-c3ccccc3)cc2)OC1=O (stereo unspecified) ?
[reply] 0.708
